Record form. Attribute: IC50. Fill in for each entry.
target: human FXa (Homo sapiens, UniProt P00742); experiment: Determination of inhibiting activity of activated blood coagulation factor X (FXa), chromogenic substrate S-2765; settings: substrate S-2765, 30 min incubation, A405, read-out: Fxa inhibition activity IC50
Sequence (P00742 235-488 limits assumed): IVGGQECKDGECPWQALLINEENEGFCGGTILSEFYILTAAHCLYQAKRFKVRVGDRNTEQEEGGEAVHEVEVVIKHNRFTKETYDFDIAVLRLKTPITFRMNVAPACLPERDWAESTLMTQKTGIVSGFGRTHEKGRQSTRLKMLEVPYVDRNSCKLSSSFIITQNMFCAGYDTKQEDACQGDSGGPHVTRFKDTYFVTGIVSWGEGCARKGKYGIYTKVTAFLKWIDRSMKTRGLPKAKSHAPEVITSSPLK
Sequence (P00742 41-179 partner limits assumed): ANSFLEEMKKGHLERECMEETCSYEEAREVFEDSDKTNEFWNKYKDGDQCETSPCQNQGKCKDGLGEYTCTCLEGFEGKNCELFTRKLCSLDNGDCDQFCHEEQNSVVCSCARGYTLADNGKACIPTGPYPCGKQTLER
Answers are plain numbers, in nM.

Here is how some compounds turned out for IC50.
{"columns": ["compound", "IC50 [nM]"],
 "data": [
  ["CC(=N)N1CCC(COCc2cc(CCC(=O)O)cc(-c3cccc(C(=N)N)c3)c2)CC1 [Example 82]", 130],
  ["CC(=N)N1CCC(COCc2cc(C(=O)O)cc(-c3cccc(C(=N)N)c3)c2)CC1 [Example 61]", 63],
  ["N=C(N)c1cccc(-c2cc(CNCC3CCN(CCO)CC3)cc(C(=O)O)c2)c1 [Example 72]", 1200]
]}

Look up IC50 for the entries below, preserving their order.
1. N=C(N)c1cccc(-c2cc(CNCC3CCCCC3)cc(C(=O)O)c2)c1 [Example 73]
2. CC(=N)N1CCC(CN(CCO)Cc2cc(C(=O)O)cc(-c3cccc(C(=N)N)c3)c2)CC1 [Example 81]
3. CC(=N)N1CCC(CNCc2cc(C(=O)O)cc(-c3cccc(C(=N)N)c3)c2)CC1 [Example 70]
4. CC(=N)N1CCC(CN(C)Cc2cc(C(=O)O)cc(-c3cccc(C(=N)N)c3)c2)CC1 [Example 74]

[1700, 210, 190, 590]
